# Test system: 786-O (clear cell renal cell adenocarcinoma cell)
# assay comment: Cell viability assay (Promega CellTiter-Glo), inhibitory effect on 786-O
# Type: cell-based
# assay setup: Homo sapiens, 786-0, 72 h, 3 days of culture
# Method: The inhibitory effect of the compounds prepared in the Examples of the present invention on various tumor cell lines was detected using cell viability assay reagent. Cell viability was detected using the Promega CellTiter-Glo kit, cell viability was determined by directly measuring intracellular ATP content. In the experiment, the ICso value of the compounds prepared in the Examples of the present invention on various tumor cell lines was detected. Each tumor cell was cultured in relevant medium. […]
value kind: pIC50
Numbers only, as −log10 of the molar value.

Some solved entries appear below for comparison.
{"columns": ["line notation", "study system", "value kind", "measured number"],
 "data": [
  ["COc1ccc2c(CCc3ccccc3)c3[n+](cc2c1OC)CCc1cc2c(cc1-3)OCO2", "786-O (clear cell renal cell adenocarcinoma cell)", "pIC50", 5.09],
  ["CCCCCCc1c2c(OC)c(OC)ccc2cc2[n+]1CCc1cc3c(cc1-2)OCO3", "786-O (clear cell renal cell adenocarcinoma cell)", "pIC50", 5.68],
  ["COc1ccc2c(Cc3ccc(OC(F)(F)F)cc3)c3[n+](cc2c1OC)CCc1cc2c(cc1-3)OCO2", "786-O (clear cell renal cell adenocarcinoma cell)", "pIC50", 4.97],
  ["CCCCC(=O)Oc1c(OC)ccc2cc3[n+](cc12)CCc1cc2c(cc1-3)OCO2", "786-O (clear cell renal cell adenocarcinoma cell)", "pIC50", 4.67],
  ["CCCCCCc1c2[n+](cc3c(OC)c(OC)ccc13)CCc1cc3c(cc1-2)OCO3", "786-O (clear cell renal cell adenocarcinoma cell)", "pIC50", 5.50]
]}

Dear reader, for each entry below, please note its pIC50.
1. CCCCCCCCCCCC(=O)Oc1c(OC)ccc2cc3[n+](cc12)CCc1cc2c(cc1-3)OCO2
2. COc1ccc2c(Cc3ccc(C(C)(C)C)cc3)c3[n+](cc2c1OC)CCc1cc2c(cc1-3)OCO2

A)
4.89
5.41
